molecular target: HLA-A*0201 (Homo sapiens, UniProt P04439, D140Y/D185E/D98H/E176V/E277Q/G131W/G231S/I119V/I121R/I166T/I218V/L300P/L318F/N151K/N90K/P208A/P217A/Q86G/Q94H/R138H/R169H/T345S); type: binding
Where no end group is shown, it is not given here.
measurement.name: pIC50
Scale: negative log10 of molar concentration, which is what pIC50 denotes.

Given VLIQRNPQV , state its recorded pIC50.
7.26

----------
biological target: DRB1*1501 (DR2w2β1) (Homo sapiens, UniProt P01903+P01911); assay: HLA class II peptide binding assay, purified HLA; conditions: Table XIX, DR supermotif peptides; unit not given
measurement.name: DR2wB1 binding data
Number, no unit, nothing else.

CC(C)C[C@H](NC(=O)[C@H](CC(=O)O)NC(=O)[C@H](CCCNC(=N)N)NC(=O)[C@H](Cc1c[nH]cn1)NC(=O)[C@@H](NC(=O)[C@H](CC(C)C)NC(=O)[C@H](CCCNC(=N)N)NC(=O)[C@@H](N)C(C)C)C(C)C)C(=O)N[C@@H](C)C(=O)N[C@@H](C)C(=O)N[C@@H](CCCNC(=N)N)C(=O)N[C@@H](CC(N)=O)C(=O)N[C@H](C(=O)N[C@@H](CC(C)C)C(=O)N[C@H](C(=O)O)C(C)C)C(C)C :: 0.0064

Given CC[C@H](C)[C@H](NC(=O)CNC(=O)[C@H](CC(C)C)NC(=O)[C@H](CC(C)C)NC(=O)[C@H](CCCNC(=N)N)NC(=O)[C@@H](N)CO)C(=O)N[C@@H](CS)C(=O)N[C@@H](CC(C)C)C(=O)N[C@H](C(=O)N[C@@H](CO)C(=O)N[C@H](C(=O)N[C@H](C(=O)N[C@@H](CCC(N)=O)C(=O)N[C@@H](CC(C)C)C(=O)N[C@H](C(=O)O)C(C)C)C(C)C)[C@@H](C)O)[C@@H](C)O , state its recorded DR2wB1 binding data.
0.0220

Given CC[C@H](C)[C@H](NC(=O)[C@H](CCCCN)NC(=O)[C@H](CCCCN)NC(=O)[C@@H](N)CS)C(=O)N[C@@H](Cc1ccccc1)C(=O)NCC(=O)N[C@@H](CO)C(=O)N[C@@H](CC(C)C)C(=O)N[C@@H](C)C(=O)N[C@@H](Cc1ccccc1)C(=O)N[C@@H](CC(C)C)C(=O)N1CCC[C@H]1C(=O)N[C@@H](CCC(=O)O)C(=O)N[C@@H](CO)C(=O)N[C@@H](Cc1ccccc1)C(=O)O , state its recorded DR2wB1 binding data.
0.0070

Given CC[C@H](C)[C@H](NC(=O)CNC(=O)[C@H](CC(=O)O)NC(=O)[C@H](Cc1ccc(O)cc1)NC(=O)[C@@H]1CCCN1C(=O)[C@H](CCCCN)NC(=O)[C@H](C)NC(=O)CNC(=O)[C@H](Cc1ccccc1)NC(=O)[C@@H](NC(=O)[C@H](CCSC)NC(=O)[C@H](CC(C)C)NC(=O)[C@H](CCC(=O)O)NC(=O)[C@H](Cc1c[nH]c2ccccc12)NC(=O)[C@@H](N)C(C)C)[C@@H](C)O)C(=O)O , state its recorded DR2wB1 binding data.
0.0990

Given CC[C@H](C)[C@H](NC(=O)[C@H](C)NC(=O)[C@@H](NC(=O)[C@@H]1CCCN1C(=O)[C@@H](NC(=O)[C@H](CCCCN)NC(=O)[C@@H](NC(=O)[C@H](CC(N)=O)NC(=O)[C@H](CCC(=O)O)NC(=O)CN)C(C)C)[C@@H](C)CC)C(C)C)C(=O)N[C@@H](CCCCN)C(=O)N[C@H](C(=O)N[C@@H](CC(C)C)C(=O)N[C@@H](CCCNC(=N)N)C(=O)N[C@@H](CCC(=O)O)C(=O)O)C(C)C , state its recorded DR2wB1 binding data.
0.0047
